Measured pIC50, listed per entry.
- measurementTarget: Human thrombin (Homo sapiens, UniProt P00734)
- Construct: purchased Haematologic Technologies Inc
- protocol: Inhibition of the protease activity of thrombin (chromogenic substrate S-2238)
- Type: biochemical
- measurementConditions: inhibition of the protease activity of thrombin; class symbols a/b/c
pIC50: −log10 of the molar value.
readoutName: pIC50

compound	value
CC(=O)Oc1ccccc1C(=O)n1nc(-c2ccccn2)nc1NCc1ccccc1 [Cmpd 177]	> 7.00
O=C(c1ccc(Cl)cc1)n1nc(-c2ccncc2)nc1NCc1ccc(F)cc1 [Cmpd 122]	6.00 to 7.00
Cc1c(-c2ccccc2)nn(C(=O)C(C)(C)C)c1NCc1ccc(F)cc1 [Cmpd 38]	< 6.00
CCC(=O)n1nc(-c2cccnc2)nc1SC [Cmpd 153]	< 6.00
COc1ccc(CNc2nc(-c3ccccn3)nn2C(=O)c2ccoc2)cc1 [Cmpd 125]	6.00 to 7.00
COc1ccccc1C(=O)n1nc(-c2ccco2)nc1NCc1ccc(F)cc1 [Cmpd 26]	> 7.00
CNC(=O)c1n[nH]c(C(=O)Nc2ccccc2Cl)n1 [Cmpd 187]	< 6.00
COc1ccc(CNc2nc(-c3ccccn3)nn2C(=O)c2ccco2)cc1 [Cmpd 123]	6.00 to 7.00
Nc1ccccc1C(=O)n1nc(-c2ccccn2)nc1NCc1ccccc1 [Cmpd 109]	> 7.00
CC(C)(C)C(=O)n1nc(-c2ccccn2)nc1NCc1ccccc1 [Cmpd 137]	> 7.00
COc1ccc(CNc2nc(-c3ccccn3)nn2C(=O)CCc2ccccc2)cc1 [Cmpd 91]	6.00 to 7.00
